src = patent US20260242735A1

Target: human CD33 V136A (human, UniProt P20138 18-364)
Sequence (P20138 18-364 V136A limits assumed): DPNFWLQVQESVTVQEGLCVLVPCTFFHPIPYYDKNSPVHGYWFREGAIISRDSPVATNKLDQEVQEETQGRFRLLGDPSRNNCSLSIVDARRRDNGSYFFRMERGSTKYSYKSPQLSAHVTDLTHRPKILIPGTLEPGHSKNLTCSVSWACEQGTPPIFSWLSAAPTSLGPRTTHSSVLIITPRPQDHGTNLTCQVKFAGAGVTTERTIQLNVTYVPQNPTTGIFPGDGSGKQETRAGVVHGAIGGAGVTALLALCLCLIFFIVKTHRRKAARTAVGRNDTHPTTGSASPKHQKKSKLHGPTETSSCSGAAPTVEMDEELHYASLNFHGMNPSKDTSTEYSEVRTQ
Experiment: flow cytometry on HEK293-T, alanine scan
recorded_metric: Mean % WT Binding (% WT binding)
Give bare numbers, in % WT binding.

Example cases with answers are listed next.
1. Refmab #2 (antibody, V domains shown, The alanine scan used IgG or Fab) VH: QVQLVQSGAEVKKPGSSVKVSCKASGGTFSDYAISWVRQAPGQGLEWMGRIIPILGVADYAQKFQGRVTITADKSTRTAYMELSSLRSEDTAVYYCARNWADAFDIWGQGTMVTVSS VL: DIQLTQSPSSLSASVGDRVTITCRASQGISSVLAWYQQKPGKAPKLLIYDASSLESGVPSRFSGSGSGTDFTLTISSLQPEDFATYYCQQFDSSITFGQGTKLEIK ... 99.8
2. Refmab #1 (antibody, V domains shown, The alanine scan used IgG or Fab; also called hP67.6) VH: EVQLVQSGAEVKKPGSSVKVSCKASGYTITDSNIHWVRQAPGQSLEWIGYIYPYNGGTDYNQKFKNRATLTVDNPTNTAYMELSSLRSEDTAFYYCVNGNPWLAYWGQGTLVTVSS VL: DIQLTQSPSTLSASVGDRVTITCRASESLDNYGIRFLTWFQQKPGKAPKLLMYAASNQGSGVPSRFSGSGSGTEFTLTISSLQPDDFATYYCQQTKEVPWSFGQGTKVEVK ... 64.2

INPUT: Field request: Mean % WT Binding | item: Refmab #4 (antibody, V domains shown, The alanine scan used IgG or Fab) VH: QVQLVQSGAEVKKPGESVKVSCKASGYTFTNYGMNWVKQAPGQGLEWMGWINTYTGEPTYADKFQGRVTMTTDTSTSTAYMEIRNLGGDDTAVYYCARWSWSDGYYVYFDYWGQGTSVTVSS VL: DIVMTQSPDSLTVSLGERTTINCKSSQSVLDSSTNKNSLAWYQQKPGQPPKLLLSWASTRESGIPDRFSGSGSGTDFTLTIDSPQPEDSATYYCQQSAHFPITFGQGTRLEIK
OUTPUT: 47.7
